system: ATP; assay: switch fluorescence ratio, 500 uM ATP over buffer (Cy3 cluster intensity, sum of 5 cycles each) (fold (ratio)); higher = stronger signal-on switching upon ATP binding; sequences stand for … in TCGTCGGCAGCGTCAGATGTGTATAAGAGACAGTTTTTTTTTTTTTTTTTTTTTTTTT…TC; conditions: aptamer strand: ATP DNA aptamer (quencher-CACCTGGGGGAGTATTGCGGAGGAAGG + anchor), 100 nM annealed; ATP concentration: 500 uM;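 further: ATP exposure 15 min at 22 °C before imaging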
Task for the reader: assign each of the following sequences its reported switch fluorescence ratio.
Answers are plain numbers.

# seq, target entity, quantity measured, measured number
records = [
    ("CTGGGTATTC", "ATP", "switch fluorescence ratio", 1.03),
    ("CGTCTGTCGG", "ATP", "switch fluorescence ratio", 1.03),
    ("CCGAACTATG", "ATP", "switch fluorescence ratio", 1.14),
]

Respectfully, I request switch fluorescence ratio for each entry included below.
1. AGTGGGGGTG
2. CCATTTGCGG
3. TTGGGGCTTG
4. CCGTTAGAGG
5. TTTTAATTTG
6. ATCCGTGGTT
7. TCCCTACGAT

1.03
1
0.998
1.01
0.994
1.01
1.06

====

tested on: ATP; test: switch fluorescence ratio, 500 uM ATP over buffer (Cy3 cluster intensity, sum of 5 cycles each) (fold (ratio)); higher = stronger signal-on switching upon ATP binding; sequences stand for … in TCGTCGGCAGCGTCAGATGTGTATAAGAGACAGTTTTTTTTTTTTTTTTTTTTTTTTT…TC; conditions: aptamer strand: ATP DNA aptamer (quencher-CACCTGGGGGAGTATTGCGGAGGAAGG + anchor), 100 nM annealed; ATP concentration: 500 uM;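 further: ATP exposure 15 min at 22 °C before imaging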
Please enter yes (1) where switch fluorescence ratio is greater than or equal to 1, and no (0) where it is lower.

# seq, class assignment
measured = [
    ("GTGTTTTTTG", "no (0)"),
    ("AGTTGGCAAT", "yes (1)"),
    ("ATGTTTTCTG", "no (0)"),
    ("CTGCAGCGTC", "yes (1)"),
]

Could you verify whether the entry "CAGTGGAGCG" shows switch fluorescence ratio of no less than 1?
no (0)

Could you verify whether the entry "GTCGGAGAGC" shows switch fluorescence ratio of no less than 1?
yes (1)

Could you verify whether the entry "CGTTGCCGTT" shows switch fluorescence ratio of no less than 1?
yes (1)

Could you verify whether the entry "TATCCTGGCG" shows switch fluorescence ratio of no less than 1?
yes (1)

====

Task for the reader: assign each of the following sequences its reported switch fluorescence ratio.
test system: ATP; test: switch fluorescence ratio, 500 uM ATP over buffer (Cy3 cluster intensity, sum of 5 cycles each) (fold (ratio)); higher = stronger signal-on switching upon ATP binding; sequences stand for … in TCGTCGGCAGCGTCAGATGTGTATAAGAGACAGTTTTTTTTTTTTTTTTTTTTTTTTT…TC; settings: aptamer strand: ATP DNA aptamer (quencher-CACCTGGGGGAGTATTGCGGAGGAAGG + anchor), 100 nM annealed; ATP concentration: 500 uM;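 further: ATP exposure 15 min at 22 °C before imaging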
Give bare numbers.

Study these solved cases before continuing.
# seq, switch fluorescence ratio
measured = [
    ("GCTTGGATTG", 1.01),
    ("TATCAGTAGT", 1.02),
    ("ATAGGAGGGC", 0.935),
    ("TGTGTGAGAA", 0.997),
    ("ATAAGTAAAG", 1.01),
]

Respectfully, I request switch fluorescence ratio for each entry included below.
1. CATTATATGT
2. TTATGGGCTT
3. TTAAAGACGG
4. TTTTCTCACG

1. 1.01
2. 1.27
3. 1.06
4. 1.12

Respectfully, I request switch fluorescence ratio for each entry included below.
1. TCGGGAGCAG
2. AACATGGGGA

1.03
0.976

Respectfully, I request switch fluorescence ratio for each entry included below.
1. AGCGCCGGGG
2. GGGCCATAAG
3. CATACGTCTG
4. GGGGAAAGGC
5. CGGGCTTTGG

1: 1.03; 2: 0.988; 3: 1.04; 4: 1.02; 5: 1.01

Respectfully, I request switch fluorescence ratio for each entry included below.
1. TTGTGTGGCA
2. GGAGTTTGGG

1.02
0.994

Respectfully, I request switch fluorescence ratio for each entry included below.
1. TTTCATAGC
2. TTCGAGAGGG
3. ACTTGTGGGC

1.1
0.981
0.973

====

Task for the reader: assign each of the following sequences its reported switch fluorescence ratio.
tested on: ATP; assay: switch fluorescence ratio, 500 uM ATP over buffer (Cy3 cluster intensity, sum of 5 cycles each) (fold (ratio)); higher = stronger signal-on switching upon ATP binding; sequences stand for … in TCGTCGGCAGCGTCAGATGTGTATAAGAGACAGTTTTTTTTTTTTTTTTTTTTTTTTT…TC; settings: aptamer strand: ATP DNA aptamer (quencher-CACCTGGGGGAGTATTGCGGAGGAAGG + anchor), 100 nM annealed; ATP concentration: 500 uM;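 further: ATP exposure 15 min at 22 °C before imaging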
Give bare numbers.

# seq, quantity measured, measured number
data = [
    ("GAGCCATTTT", "switch fluorescence ratio", 0.991),
    ("CATGCTTTCT", "switch fluorescence ratio", 0.984),
    ("TCTAGAACGC", "switch fluorescence ratio", 1.01),
]

Respectfully, I request switch fluorescence ratio for each entry included below.
1. TTTGGGTAAT
2. TTGTCGGCG
3. CGCGTAGGGC
4. TTCCCTAATG
5. TTGTTTCCGA
6. TAGACAGGGG
7. CATGCGGGGG
8. TTTCGTTTTA

[1.21, 1, 1.04, 1, 1, 1, 1.01, 0.996]

====

Task for the reader: assign each of the following sequences its reported switch fluorescence ratio.
test system: ATP; assay: switch fluorescence ratio, 500 uM ATP over buffer (Cy3 cluster intensity, sum of 5 cycles each) (fold (ratio)); higher = stronger signal-on switching upon ATP binding; sequences stand for … in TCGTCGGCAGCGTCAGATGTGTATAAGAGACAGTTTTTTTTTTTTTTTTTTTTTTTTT…TC; settings: aptamer strand: ATP DNA aptamer (quencher-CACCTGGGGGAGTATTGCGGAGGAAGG + anchor), 100 nM annealed; ATP concentration: 500 uM;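 further: ATP exposure 15 min at 22 °C before imaging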

Study these solved cases before continuing.
# seq, target entity, switch fluorescence ratio
records = [
    ("ACGAATTCTG", "ATP", 1.02),
    ("TCGTGGCGGA", "ATP", 0.979),
    ("TAGAGGGAGG", "ATP", 0.967),
    ("CCGTTTTAGT", "ATP", 1.02),
]

Respectfully, I request switch fluorescence ratio for each entry included below.
1. CGGATGTGTT
2. CAGCTATCTT
3. TTATTCCGGT
4. TGTTGGTGTC

1: 0.951; 2: 1.04; 3: 1.01; 4: 0.987

Respectfully, I request switch fluorescence ratio for each entry included below.
1. TGGGGCTAGG
2. AGATGGTAGG
3. GGTAATTCTG
4. AAAATCCTTG
5. TGTTGGGGGT
6. GGTAAAGGTA

1: 0.993; 2: 0.986; 3: 0.984; 4: 1.01; 5: 0.962; 6: 1

Respectfully, I request switch fluorescence ratio for each entry included below.
1. TCGTTGGACT
2. GTTATATGGA
3. GGGTTGCTTT
4. TTGCTTTATT
5. TTTGCGAGAG
6. TTTATCCGCG

[1.01, 0.996, 1, 0.987, 1.01, 1.25]

====

tested on: ATP; assay: switch fluorescence ratio, 500 uM ATP over buffer (Cy3 cluster intensity, sum of 5 cycles each) (fold (ratio)); higher = stronger signal-on switching upon ATP binding; sequences stand for … in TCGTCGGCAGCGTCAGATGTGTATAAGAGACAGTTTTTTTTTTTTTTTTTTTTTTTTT…TC; conditions: aptamer strand: ATP DNA aptamer (quencher-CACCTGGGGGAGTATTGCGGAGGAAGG + anchor), 100 nM annealed; ATP concentration: 500 uM;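 further: ATP exposure 15 min at 22 °C before imaging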
quantity measured: switch fluorescence ratio
Numbers only.

# seq, switch fluorescence ratio
data = [
    ("GTTATCAGTT", 0.99),
    ("GGGTGTGCGG", 0.972),
    ("TAGATTTGGG", 0.967),
    ("ATGGAGTTG", 0.994),
    ("AGGGGGCAAA", 1.02),
]

Respectfully, I request switch fluorescence ratio for each entry included below.
1. AGTCCTTTGT
2. CTAACATTTT
3. GATTCTTATG

1.02
1.01
1.03

Respectfully, I request switch fluorescence ratio for each entry included below.
1. GGGGCTTCTG
2. AATTGATCGT
3. TTATTCGGCA
4. ATGGGACAGT

1.03
0.982
1.01
0.988

Respectfully, I request switch fluorescence ratio for each entry included below.
1. GGGGTAAGCT
2. CGAGGTTAGG

0.998
1.06
